Biological target: T1, mOrai1-hOrai1 ECL2 chimeric protein (human/mouse chimera, UniProt Q8BWG9 1-304 (mouse entry))
T1 construct: mouse Orai1 with human ECL2; also called Ch
T1 sequence (Q8BWG9 other isoform, or with tags, fused parts or gaps mutant): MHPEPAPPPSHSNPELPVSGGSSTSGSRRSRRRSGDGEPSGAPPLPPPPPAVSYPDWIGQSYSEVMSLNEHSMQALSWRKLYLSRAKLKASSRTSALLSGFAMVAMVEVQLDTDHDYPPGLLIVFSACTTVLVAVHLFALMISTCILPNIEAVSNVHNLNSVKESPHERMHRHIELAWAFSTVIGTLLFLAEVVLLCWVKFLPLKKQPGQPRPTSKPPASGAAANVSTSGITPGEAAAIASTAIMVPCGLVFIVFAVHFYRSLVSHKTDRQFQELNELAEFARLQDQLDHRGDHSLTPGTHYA
Assay: FACS, 293EBNA, RFI-POC grade
Parameters: concentration or dose not given beside the values
Endpoint Name: POC (percent of control, FACS Geo Mean relative to binding to Ch. 1)

Worked examples follow.
| Binder | Result |
| --- | --- |
| mAb 5B1.1 (antibody, human IgG2, lambda, V domains shown, fully human IgG2 lambda, Campaign 2; also called mAb 5Bl1.1) VH: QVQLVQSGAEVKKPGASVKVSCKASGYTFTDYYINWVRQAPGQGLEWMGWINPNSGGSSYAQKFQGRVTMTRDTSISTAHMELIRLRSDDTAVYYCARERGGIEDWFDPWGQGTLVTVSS VL: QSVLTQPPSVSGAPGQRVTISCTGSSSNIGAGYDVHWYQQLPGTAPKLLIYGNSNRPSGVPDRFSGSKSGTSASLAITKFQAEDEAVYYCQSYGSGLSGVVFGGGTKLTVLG | 40 to 100% |
| mAb 5F2.1 (antibody, human IgG2, lambda, V domains shown, fully human IgG2 lambda, Campaign 2) VH: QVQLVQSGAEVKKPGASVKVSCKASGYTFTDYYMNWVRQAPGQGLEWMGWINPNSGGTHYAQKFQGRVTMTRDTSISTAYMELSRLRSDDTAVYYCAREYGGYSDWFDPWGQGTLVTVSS VL: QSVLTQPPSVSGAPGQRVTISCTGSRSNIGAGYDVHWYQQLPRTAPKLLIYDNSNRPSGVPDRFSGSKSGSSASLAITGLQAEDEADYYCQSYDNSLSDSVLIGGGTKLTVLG | 40 to 100% |

POC (percent of control, FACS Geo Mean relative to binding to Ch. 1) reading for mAb 5C1.1 (antibody, human IgG2, lambda, V domains shown, fully human IgG2 lambda, Campaign 2) VH: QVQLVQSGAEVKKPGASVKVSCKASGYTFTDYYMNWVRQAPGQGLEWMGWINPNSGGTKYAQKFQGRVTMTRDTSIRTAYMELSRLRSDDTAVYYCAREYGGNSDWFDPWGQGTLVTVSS VL: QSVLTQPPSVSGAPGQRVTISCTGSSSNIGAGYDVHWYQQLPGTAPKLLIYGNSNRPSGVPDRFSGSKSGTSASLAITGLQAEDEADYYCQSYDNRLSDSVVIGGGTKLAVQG : 40 to 100%

Reference source: patent US20120231006A1
